Ref: the supplement of paper PMC9112550

- Test system: Escherichia coli TOP10
- ASSAY_DETAILS: shrunken log2 fold change of peptide-encoding DNA abundance (4.5 h post-induction vs induction); higher = less antimicrobial activity (less host growth inhibition)
- ASSAY_CONDITIONS: time post-induction: 4.5 h; library: site-saturation at positions 5, 18, 19, 20
PROPERTY_LABEL: shrunken log2 fold change

>>> print(df.to_string())
             chain_sequence  recorded_measurement
 0  RRIRARPPRLPRPRPRPSMKPRP                -0.037
 1  RRIRVRPPRLPRPRPRPEPSPRP                0.0778
 2  RRIRKRPPRLPRPRPRPIFKPRP                 0.307
 3  RRIRFRPPRLPRPRPRPCCQPRP                -0.439
 4  RRIRSRPPRLPRPRPRPGFAPRP                 0.502
 5  RRIRSRPPRLPRPRPRPEDRPRP                 0.972
 6  RRIRLRPPRLPRPRPRPSAYPRP                0.0888
 7  RRIRWRPPRLPRPRPRPQGIPRP                 0.102
 8  RRIRMRPPRLPRPRPRPDIVPRP                0.0138
 9  RRIRKRPPRLPRPRPRPRDRPRP                  1.26
10  RRIRGRPPRLPRPRPRPMQYPRP                 -0.21
11  RRIRARPPRLPRPRPRPNQIPRP                0.0775
12  RRIRPRPPRLPRPRPRPYYTPRP                -0.379
13  RRIRGRPPRLPRPRPRPNSIPRP               0.00326
14  RRIRRRPPRLPRPRPRPYWFPRP                -0.299
15  RRIRTRPPRLPRPRPRPLMPPRP                0.0315
16  RRIRVRPPRLPRPRPRPIGYPRP                 0.117
17  RRIRRRPPRLPRPRPRPCHNPRP                -0.278
18  RRIRERPPRLPRPRPRPKVLPRP                0.0059
19  RRIRVRPPRLPRPRPRPIWPPRP               -0.0228
20  RRIRKRPPRLPRPRPRPVYIPRP                -0.564
21  RRIRGRPPRLPRPRPRPTIKPRP                  0.48
22  RRIRWRPPRLPRPRPRPLGAPRP                 0.483
23  RRIRFRPPRLPRPRPRPPGGPRP                 0.782
24  RRIRMRPPRLPRPRPRPCTVPRP               -0.0102
25  RRIRVRPPRLPRPRPRPNVCPRP                -0.111

* * *

- Test system: Escherichia coli TOP10;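 also: peptides expressed intracellularly from a pBAD plasmid library in pooled LB shake-flask culture, induced with 0.3% L-arabinose, DNA abundance read by NGS, three biological replicates, DESeq2 with apeglm shrinkage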
- ASSAY_DETAILS: shrunken log2 fold change of peptide-encoding DNA abundance (4.5 h post-induction vs induction); higher = less antimicrobial activity (less host growth inhibition)
- ASSAY_CONDITIONS: time post-induction: 4.5 h; library: site-saturation at positions 5, 18, 19, 20
PROPERTY_LABEL: shrunken log2 fold change

             chain_sequence          assayed_system             property_label  recorded_measurement
 0  RRIRDRPPRLPRPRPRPNHYPRP  Escherichia coli TOP10  shrunken log2 fold change                -0.459
 1  RRIRARPPRLPRPRPRPAWWPRP  Escherichia coli TOP10  shrunken log2 fold change                 0.895
 2  RRIRCRPPRLPRPRPRPRYFPRP  Escherichia coli TOP10  shrunken log2 fold change                -0.529
 3  RRIRVRPPRLPRPRPRPLNVPRP  Escherichia coli TOP10  shrunken log2 fold change                -0.434
 4  RRIRDRPPRLPRPRPRPGCCPRP  Escherichia coli TOP10  shrunken log2 fold change                 0.617
 5  RRIRCRPPRLPRPRPRPEQPPRP  Escherichia coli TOP10  shrunken log2 fold change                 0.581
 6  RRIRARPPRLPRPRPRPQFHPRP  Escherichia coli TOP10  shrunken log2 fold change                -0.116
 7  RRIRSRPPRLPRPRPRPYTKPRP  Escherichia coli TOP10  shrunken log2 fold change                -0.202
 8  RRIRWRPPRLPRPRPRPHYPPRP  Escherichia coli TOP10  shrunken log2 fold change                -0.225
 9  RRIRYRPPRLPRPRPRPCVHPRP  Escherichia coli TOP10  shrunken log2 fold change               -0.0274
10  RRIRQRPPRLPRPRPRPCHCPRP  Escherichia coli TOP10  shrunken log2 fold change              -0.00822
11  RRIRQRPPRLPRPRPRPAPMPRP  Escherichia coli TOP10  shrunken log2 fold change                 0.538
12  RRIRHRPPRLPRPRPRPFNHPRP  Escherichia coli TOP10  shrunken log2 fold change                -0.372
13  RRIRYRPPRLPRPRPRPDPEPRP  Escherichia coli TOP10  shrunken log2 fold change                -0.345
14  RRIRFRPPRLPRPRPRPGVVPRP  Escherichia coli TOP10  shrunken log2 fold change                 0.231
15  RRIRHRPPRLPRPRPRPHIMPRP  Escherichia coli TOP10  shrunken log2 fold change                 -0.63
16  RRIRPRPPRLPRPRPRPQHHPRP  Escherichia coli TOP10  shrunken log2 fold change                -0.302
17  RRIRYRPPRLPRPRPRPGAGPRP  Escherichia coli TOP10  shrunken log2 fold change                0.0814
18  RRIRMRPPRLPRPRPRPVMPPRP  Escherichia coli TOP10  shrunken log2 fold change               -0.0271
19  RRIRGRPPRLPRPRPRPMQEPRP  Escherichia coli TOP10  shrunken log2 fold change                 0.161
20  RRIRTRPPRLPRPRPRPMDIPRP  Escherichia coli TOP10  shrunken log2 fold change              -0.00738
21  RRIRRRPPRLPRPRPRPRAGPRP  Escherichia coli TOP10  shrunken log2 fold change                 0.638
22  RRIRQRPPRLPRPRPRPNFEPRP  Escherichia coli TOP10  shrunken log2 fold change              -0.00188
23  RRIRVRPPRLPRPRPRPMLQPRP  Escherichia coli TOP10  shrunken log2 fold change                 0.154
24  RRIRKRPPRLPRPRPRPWSSPRP  Escherichia coli TOP10  shrunken log2 fold change                -0.136
25  RRIRVRPPRLPRPRPRPGEWPRP  Escherichia coli TOP10  shrunken log2 fold change              -0.00804
26  RRIRIRPPRLPRPRPRPTCVPRP  Escherichia coli TOP10  shrunken log2 fold change               0.00176
27  RRIRCRPPRLPRPRPRPQPPPRP  Escherichia coli TOP10  shrunken log2 fold change                 0.806
28  RRIRERPPRLPRPRPRPHMRPRP  Escherichia coli TOP10  shrunken log2 fold change                0.0528
29  RRIRCRPPRLPRPRPRPYWLPRP  Escherichia coli TOP10  shrunken log2 fold change                -0.669
30  RRIRERPPRLPRPRPRPCTVPRP  Escherichia coli TOP10  shrunken log2 fold change               -0.0354
31  RRIRNRPPRLPRPRPRPPGTPRP  Escherichia coli TOP10  shrunken log2 fold change                 0.241
32  RRIRRRPPRLPRPRPRPAECPRP  Escherichia coli TOP10  shrunken log2 fold change              -0.00699
33  RRIRGRPPRLPRPRPRPVANPRP  Escherichia coli TOP10  shrunken log2 fold change                 0.623
34  RRIRCRPPRLPRPRPRPWSKPRP  Escherichia coli TOP10  shrunken log2 fold change                -0.498
35  RRIRMRPPRLPRPRPRPECFPRP  Escherichia coli TOP10  shrunken log2 fold change                  1.35
36  RRIRKRPPRLPRPRPRPWTFPRP  Escherichia coli TOP10  shrunken log2 fold change                 0.489
37  RRIRRRPPRLPRPRPRPLWHPRP  Escherichia coli TOP10  shrunken log2 fold change                  1.15
38  RRIRIRPPRLPRPRPRPEGIPRP  Escherichia coli TOP10  shrunken log2 fold change               -0.0831
39  RRIRMRPPRLPRPRPRPPGWPRP  Escherichia coli TOP10  shrunken log2 fold change                  1.25
40  RRIRPRPPRLPRPRPRPQRCPRP  Escherichia coli TOP10  shrunken log2 fold change               -0.0388
41  RRIRRRPPRLPRPRPRPDQWPRP  Escherichia coli TOP10  shrunken log2 fold change                 0.224
42  RRIRDRPPRLPRPRPRPWFAPRP  Escherichia coli TOP10  shrunken log2 fold change               -0.0921
43  RRIRTRPPRLPRPRPRPACRPRP  Escherichia coli TOP10  shrunken log2 fold change                 0.206
44  RRIRWRPPRLPRPRPRPCEFPRP  Escherichia coli TOP10  shrunken log2 fold change               -0.0211
45  RRIRSRPPRLPRPRPRPSLCPRP  Escherichia coli TOP10  shrunken log2 fold change               -0.0295
